- measured-target: T1, rat NK1 receptor (rat, UniProt P14600 1-407)
- T1 construct: whole, on cells; membrane preparations of the transfected cells were used; also called rNK1; rNK-1
- T1 sequence (P14600 whole entry): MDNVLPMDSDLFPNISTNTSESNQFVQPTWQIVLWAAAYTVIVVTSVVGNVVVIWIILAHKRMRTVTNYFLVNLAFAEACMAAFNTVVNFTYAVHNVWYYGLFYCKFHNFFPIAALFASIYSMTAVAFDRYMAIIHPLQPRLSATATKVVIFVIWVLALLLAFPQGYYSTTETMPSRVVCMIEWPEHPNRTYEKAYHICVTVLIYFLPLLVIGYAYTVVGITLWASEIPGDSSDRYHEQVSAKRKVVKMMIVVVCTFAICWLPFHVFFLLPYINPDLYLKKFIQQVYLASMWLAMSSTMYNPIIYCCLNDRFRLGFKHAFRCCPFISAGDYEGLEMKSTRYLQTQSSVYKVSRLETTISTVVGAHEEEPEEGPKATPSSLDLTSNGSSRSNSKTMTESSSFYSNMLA
- measurement-notes: competition vs [3H]Substance P, rNK1 CHO cell membranes
Square brackets hold non-standard residues; d marks the D form. Ends that are not written are not given here. * marks the point of attachment. OBzl(3,5-(CF3)2) = FC(F)(F)c1cc(CO*)cc(C(F)(F)F)c1
measure: Ki (nM)

In [3]: df
Out[3]:
                                     binder  measure  display_unit  observed_result
0  Y[dA]GW-{OBzl(3,5-(CF3)2)} (also called NP44) [Tyr-D-Ala-Gly-Trp-O-3′,5′(CF3)2-Bzl]       Ki            nM              3.4
